B1: library; a variant is named by its letters at N, in order (parent)
chain: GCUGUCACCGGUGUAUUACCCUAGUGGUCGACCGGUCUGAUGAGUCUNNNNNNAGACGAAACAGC

Variants of: B1
Experiment: normalized RNA/DNA level without ligand (relative to sTRSVctl = 100) (log10 (% of sTRSVctl)); ligand: hypoxanthine (xanthine aptamer); higher = less ribozyme self-cleavage, higher mRNA level
Settings: HEK293T, reporter: mCherry (pCS4076), ligand present: no
reported metric: normalized RNA/DNA level without ligand (log10)
Hey, just send me the number, nothing else.

Sample records with normalized RNA/DNA level without ligand (log10):
mutation_label=UGAGAU recorded_measurement=1.71
mutation_label=CAUAAU recorded_measurement=1.79
mutation_label=AGGUCG recorded_measurement=1.53
mutation_label=GACUGG recorded_measurement=1.42
mutation_label=UGAUCA recorded_measurement=1.9
mutation_label=ACGCAA recorded_measurement=1.55
mutation_label=CGGAGA recorded_measurement=1.62
mutation_label=CGGAUU recorded_measurement=1.74

Moving on to the next variant.
Q: Respond only with normalized RNA/DNA level without ligand (log10) recorded for CGUACU
A: 1.86
